experiment: Acute oral toxicity; conditions: in vivo, SD-strain rat
So I've got a bunch of compounds here, and I need their LD50 values.

Exercise: Given C/C=C/COc1ccc(NC(=O)N(C)C)cc1 [trans-form] , state its recorded LD50.
Solution: > 2000 mg/kg

Exercise: Request: C/C=C\COc1ccc(NC(=O)N(C)C)cc1 [cis-form]
Solution: > 2000 mg/kg

Exercise: Request: CC=CCOc1ccc(NC(=O)N(C)C)cc1 [Mixture of trans- and cis-forms 1:1]
Solution: > 2000 mg/kg

====

system: paddy rice; assay: Test Example 1: pot test on selectivity, inhibition of paddy rice; assay type: in vivo; conditions: 900 g/10 are, 5-leaf stage, dry weight 30 days after treatment
So I've got a bunch of compounds here, and I need their Inhibition (%) by treatment at 5-leaf stage, paddy rice values.
Units required after the number.

Exercise: Given `CC(Cl)=CCOc1ccc(NC(=O)N(C)C)cc1` , state its recorded Inhibition (%) by treatment at 5-leaf stage, paddy rice.
Solution: 12%

Exercise: Request: CC=CCOc1ccc(NC(=O)N(C)C)cc1 [Mixture of trans- and cis-forms 1:4]
Solution: 0%

Exercise: Request: `CNC(=O)Nc1ccc(OCC=C(C)Cl)cc1`
Solution: 26%

Exercise: Request: CC=CCOc1ccc(NC(=O)N(C)C)cc1 [Mixture of trans- and cis-forms 1:1]
Solution: 0%

====

So I've got a bunch of compounds here, and I need their Weed kill degree, Bulrush values.
Test system: Bulrush
Assay: Test Example 5: Wagner pot test, herbicidal effect on Bulrush
Type: in vivo
Details: 300 g/10a, leaf age 3, 20 days after application
Procedure: In a 1/7500 are Wagner pot, sieved paddy field soil (alluvial soil) was charged. […] The test was carried out by repeating the same test three times per area and the results were determined 20 days after the application of the chemicals with regard to the herbicidal effect and chemical injury on paddy rice on the basis of the evaluation index as shown below. […] In the above table, the inhibition rate was calculated according to the method as described in Test Example 1.

Exercise: Given C/C=C\COc1ccc(NC(=O)N(C)C)cc1 [cis-form] , state its recorded Weed kill degree, Bulrush.
Solution: 5 (100)

Exercise: Request: CC=CCOc1ccc(NC(=O)N(C)C)cc1 [Mixture of trans- and cis-forms 1:1]
Solution: 5 (100)

Exercise: Request: CCSC(=O)N1CCCCCC1 [Molinate]
Solution: 0 (less than 39)

Exercise: Request: `CN(C)C(=O)Nc1ccc(Cl)c(Cl)c1`
Solution: 5 (100)

Exercise: Request: C/C=C/COc1ccc(NC(=O)N(C)C)cc1 [trans-form]
Solution: 5 (100)

====

test system: Echinochloa crus-galli var. oryzicola; assay: Test Example 1: pot test on selectivity, inhibition of Echinochloa crus-galli var. oryzicola; format: in vivo; conditions: 75 g/10 are, 1-leaf stage, dry weight 30 days after treatment
So I've got a bunch of compounds here, and I need their Inhibition (%) by treatment at 1-leaf stage, E. crus-galli var. oryzicola values.
// note: answer is a bare numeric in %

Exercise: Given CC=CCOc1ccc(NC(=O)N(C)C)cc1 [Mixture of trans- and cis-forms 1:1] , state its recorded Inhibition (%) by treatment at 1-leaf stage, E. crus-galli var. oryzicola.
Solution: 96

Exercise: Request: CC=CCOc1ccc(NC(=O)N(C)C)cc1 [Mixture of trans- and cis-forms 1:4]
Solution: 93

Exercise: Request: `CC(Cl)=CCOc1ccc(NC(=O)N(C)C)cc1`
Solution: 87

Exercise: Request: `CNC(=O)Nc1ccc(OCC=C(C)Cl)cc1`
Solution: 10
